B1: library; a variant is named by its letters at X, in order (parent)
chain: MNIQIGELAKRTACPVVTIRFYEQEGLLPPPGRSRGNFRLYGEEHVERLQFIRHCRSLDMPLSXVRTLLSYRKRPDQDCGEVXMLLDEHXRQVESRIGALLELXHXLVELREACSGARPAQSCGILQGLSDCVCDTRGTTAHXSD

Variants of: B1
Assay: sfGFP reporter fluorescence (15 h) (µM FITC); higher = stronger transcriptional activation
Conditions: library round: Round 3b; ligand: 1 µM Pb
property name: sfGFP reporter fluorescence
Field format: numeric only.

KIAKAT: 0.675
KNAKAR: 0.394
KNAVER: 0.334
DIAKAR: 0.0673
KNITAT: 0.358

Problem: Quick check: sfGFP reporter fluorescence of DIIVAT ?
Result: 0.131

Problem: What about DNAVER ?
Result: 0.0511

Problem: Also need DIIVER , thanks.
Result: 0.0917
